Answer each item with its documented inhibition of growth at 10 µM.
test system: SiHa; assay: Growth inhibition of human SiHa cells incubated for 72 hrs at 10 uM by CCK8 assay; assay type: functional; conditions: read-out: GI
Give just the numeric value; % need not be written.

Form field inhibition of growth at 10 µM, entry `CN(C)C(=O)c1cc2cnc(Nc3ccc(NC(=O)C4(C(=O)Nc5ccc(F)cc5)CC4)cc3F)nc2n1C1CCCC1` : 44.4

Form field inhibition of growth at 10 µM, entry `Nc1ccc(NC(=O)C2(C(=O)Nc3ccc(F)cc3)CC2)cc1F` : 36

Form field inhibition of growth at 10 µM, entry `CN(C)C(=O)c1cc2cnc(Nc3ccc(NC(=O)C4(C(=O)Nc5ccccc5F)CC4)cc3)nc2n1C1CCCC1` : 103

Form field inhibition of growth at 10 µM, entry `CN(C)C(=O)c1cc2cnc(Nc3ccc(NC(=O)C4(C(=O)Nc5ccccc5)CC4)cc3)nc2n1C1CCCC1` : 106

Form field inhibition of growth at 10 µM, entry `CN(C)C(=O)c1cc2cnc(Nc3ccc(NC(=O)C4(C(=O)Nc5ccc(O)cc5)CC4)cc3)nc2n1C1CCCC1` : 94.3

Form field inhibition of growth at 10 µM, entry `CN(C)C(=O)c1cc2cnc(Nc3ccc(NC(=O)C4(C(=O)Nc5cccc(Br)c5)CC4)cc3)nc2n1C1CCCC1` : 92.5

Form field inhibition of growth at 10 µM, entry `CN(C)C(=O)c1cc2cnc(Nc3ccc(NC(=O)C4(C(=O)Nc5ccc(Br)cc5)CC4)cc3)nc2n1C1CCCC1` : 98.8

Form field inhibition of growth at 10 µM, entry `CN(C)C(=O)c1cc2cnc(Nc3ccc(N)cn3)nc2n1C1CCCC1` : 61.5

Form field inhibition of growth at 10 µM, entry `CN(C)C(=O)c1cc2cnc(Nc3ccc(NC(=O)C4(C(=O)Nc5cccc(F)c5)CC4)cc3)nc2n1C1CCCC1` : 107

Form field inhibition of growth at 10 µM, entry `CN(C)C(=O)c1cc2cnc(Nc3ccc(NC(=O)C4(C(=O)Nc5cccc(Cl)c5)CC4)cc3)nc2n1C1CCCC1` : 97.3

Origin of the recorded values: ChEMBL document CHEMBL4052710
